Examples of substances with documented Yap1 mRNA, % UTC follow.
System: Yap1 mRNA
Assay Notes: Dose-dependent inhibition of human Yap1 in A-431 cells (Example 7, 10,000 cells per well, RTS36584)
Type: cell-based
Applied Conditions: Table 56, 62.5 nM, free uptake, A-431 cells 10,000 cells per well, 48 hours
Strand notation (5' to 3'): a small letter for the sugar, then the base; units joined by * are phosphorothioate-linked, units joined directly phosphodiester-linked; [ ] holds rarer units or linkages, { } end groups; capitals alone tell only the bases. k = constrained ethyl (cEt); [5mC] = 5-methylcytosine; d = 2'-deoxy (DNA)
Express the result in % UTC but write the number alone.

> print(dat)
                                  substance  observed.value
1  958361 (antisense kG*k[5mC]*kT*d[5mC]*dG*dA*dA*d[5mC]*dA*dT*dG*d[5mC]*dT*kG*kT*kG) [compound 958361]              80

**Q:** Param item = 715483 (k[5mC]*kT*k[5mC]*dT*dT*dT*dG*dG*dA*dA*dA*d[5mC]*d[5mC]*kA*kT*kT) [compound 715483] ; retrieve measured Yap1 mRNA, % UTC.
**A:** 38

**Q:** Param item = 958736 (kG*kT*kG*dA*dT*dA*dT*dG*dG*dA*dT*dT*d[5mC]*kT*kG*kT; antisense) [compound 958736] ; retrieve measured Yap1 mRNA, % UTC.
**A:** 38

---

Tested on: Yap1 mRNA
Assay Notes: Antisense inhibition of human Yap1 in SNU-449 cells by modified oligonucleotides, single dose (Example 5, RTS36584)
Assay type: cell-based
Applied Conditions: Table 39; SNU-449 cells, 10,000 cells per well, free uptake, 2,000 nM oligonucleotide, approx. 48 hours; RTS36584; normalized to RIBOGREEN; Yap1 mRNA relative to untreated control
Strand notation (5' to 3'): a small letter for the sugar, then the base; units joined by * are phosphorothioate-linked, units joined directly phosphodiester-linked; [ ] holds rarer units or linkages, { } end groups; capitals alone tell only the bases. e = 2'-O-(2-methoxyethyl) (MOE); k = constrained ethyl (cEt); [5mC] = 5-methylcytosine; d = 2'-deoxy (DNA)
# cutoff 40 % UTC applies to YAP1 (% UTC); >= gives t, < gives f

A selection of reference data follows.
> print(dat)
                                  substance  assigned.class
1  958499 (kA*kT*kT*dA*dG*dA*dG*dT*dA*dT*dG*dT*dG*kG*k[5mC]*kA) [Compound 958499]               f
2  1198396 (kA*d[5mC]*dT*dT*dT*dT*dA*d[5mC]*dA*dT*dT*kA*eG*kG*eA*kA; antisense) [Compound 1198396]               f
3  1198411 (kA*dG*dG*dA*dT*dG*d[5mC]*dA*dT*dG*dG*kT*eT*kT*eT*kT; antisense) [Compound 1198411]               f

**Q:** Check if YAP1 (% UTC) >= 40 % UTC (inclusive). Item: 1198437 (kT*dT*dT*dA*dT*dG*dT*dA*dA*dT*dA*kT*eT*kG*e[5mC]*kA; antisense) [Compound 1198437]
**A:** t

**Q:** Check if YAP1 (% UTC) >= 40 % UTC (inclusive). Item: 1198430 (kA*dT*dA*dT*dT*dG*d[5mC]*dA*dA*dT*d[5mC]*kT*eG*kT*e[5mC]*kT) [Compound 1198430]
**A:** t

**Q:** Check if YAP1 (% UTC) >= 40 % UTC (inclusive). Item: 1198395 (k[5mC]*dT*dT*dT*dT*dA*d[5mC]*dA*dT*dT*dA*kG*eG*kA*eA*k[5mC]; antisense) [Compound 1198395]
**A:** f

**Q:** Check if YAP1 (% UTC) >= 40 % UTC (inclusive). Item: 1198405 (k[5mC]*dT*dT*dT*dG*dG*dA*dA*dG*dA*dT*k[5mC]*eT*kG*eA*kA; antisense) [Compound 1198405]
**A:** f

**Q:** Check if YAP1 (% UTC) >= 40 % UTC (inclusive). Item: 1198380 (kA*dG*dA*dG*dT*dA*dT*dG*dT*dG*dG*k[5mC]*eA*kA*eT*kA; antisense) [Compound 1198380]
**A:** f

---

Examples of substances with documented YAP1 (% UTC) follow.
System: Yap1 mRNA
Assay Notes: Antisense inhibition of human Yap1 in SNU-449 cells by modified oligonucleotides, single dose (Example 5, RTS36584)
Format: cell-based
Applied Conditions: Table 43 experiment; SNU-449 cells, 10,000 cells per well, free uptake, 2,000 nM, approximately 48 hours; RTS36584; Yap1 mRNA normalized to RIBOGREEN, relative to untreated control cells
Strand notation (5' to 3'): a small letter for the sugar, then the base; units joined by * are phosphorothioate-linked, units joined directly phosphodiester-linked; [ ] holds rarer units or linkages, { } end groups; capitals alone tell only the bases. e = 2'-O-(2-methoxyethyl) (MOE); k = constrained ethyl (cEt); [5mC] = 5-methylcytosine; d = 2'-deoxy (DNA)
Express the result in % UTC but write the number alone.

A selection of reference data follows.
> print(dat)
                                  substance  observed.value
1  1198253 (kA*d[5mC]*dT*d[5mC]*dT*dT*dA*dT*dA*dT*dG*eG*eT*eT*kT*kT; antisense) [Compound 1198253]              50
2  1198483 (antisense k[5mC]*kA*d[5mC]*dT*dT*dT*dT*dA*d[5mC]*dA*dT*eT*kA*eG*kG*eA) [Compound 1198483]              31
3  1198217 (kG*kG*dT*dA*dT*dA*dA*d[5mC]*dT*dG*dG*eG*e[5mC]*eA*kA*kA; antisense) [Compound 1198217]              57
4  1074461 (kG*kA*kA*dA*dT*dT*dG*dT*d[5mC]*dT*d[5mC]*dA*dT*kG*k[5mC]*k[5mC]) [Compound 1074461]              11
5  1095575 (antisense kA*k[5mC]*dT*dG*dA*dG*dG*dT*dA*dT*dA*eA*e[5mC]*eT*kG*kG) [Compound 1095575]              55

**Q:** Param item = 1198469 (antisense kA*kT*dT*dA*dG*dA*dG*dT*dA*dT*dG*eT*kG*eG*k[5mC]*eA) [Compound 1198469] ; retrieve measured YAP1 (% UTC).
**A:** 23

**Q:** Param item = 1198482 (antisense kA*k[5mC]*dT*dT*dT*dT*dA*d[5mC]*dA*dT*dT*eA*kG*eG*kA*eA) [Compound 1198482] ; retrieve measured YAP1 (% UTC).
**A:** 63

---

System: Yap1 mRNA
Assay Notes: Antisense inhibition of human Yap1 in A-431 cells by cEt gapmers, single dose (Example 1, RTS4814)
Format: cell-based
Applied Conditions: Table 2; A-431 cells, free uptake, 2,000 nM, approximately 48 hours, RTS4814; Yap1 mRNA relative to untreated control cells
Strand notation (5' to 3'): a small letter for the sugar, then the base; units joined by * are phosphorothioate-linked, units joined directly phosphodiester-linked; [ ] holds rarer units or linkages, { } end groups; capitals alone tell only the bases. k = constrained ethyl (cEt); [5mC] = 5-methylcytosine; d = 2'-deoxy (DNA)
Examples of substances with documented YAP1 (% UTC) follow.
Express the result in % UTC but write the number alone.

**Q:** So what YAP1 (% UTC) did 715560 (k[5mC]*k[5mC]*k[5mC]*dT*dT*dT*dA*d[5mC]*dA*dA*dA*dA*dA*kT*kA*kG; antisense) [Compound 715560] get with Yap1 mRNA?
**A:** 98

**Q:** So what YAP1 (% UTC) did 715569 (k[5mC]*kA*kA*dA*dG*dG*dT*dA*dG*dG*dA*dT*dA*kA*kA*kT; antisense) [Compound 715569] get with Yap1 mRNA?
**A:** 122

**Q:** So what YAP1 (% UTC) did 715482 (antisense k[5mC]*kT*kT*dT*dG*dG*dA*dA*dA*d[5mC]*d[5mC]*dA*dT*kT*kA*kT) [Compound 715482] get with Yap1 mRNA?
**A:** 58

---

Tested on: Yap1 mRNA
Assay Notes: Antisense inhibition of human Yap1 in A-431 cells by cEt gapmers, single dose (Example 3, RTS36584)
Assay type: cell-based
Applied Conditions: Table 12; A-431 cells, 5,000 cells per well, free uptake, 2,000 nM modified oligonucleotide, approx. 48 hours; RTS36584; normalized to RIBOGREEN; Yap1 mRNA relative to untreated control cells
Strand notation (5' to 3'): a small letter for the sugar, then the base; units joined by * are phosphorothioate-linked, units joined directly phosphodiester-linked; [ ] holds rarer units or linkages, { } end groups; capitals alone tell only the bases. k = constrained ethyl (cEt); [5mC] = 5-methylcytosine; d = 2'-deoxy (DNA)
Endpoint Label: YAP1 (% UTC)
Express the result in % UTC but write the number alone.

A selection of reference data follows.
> print(dat)
                                  substance  test.target  output.unit  observed.value
1  958799 (antisense kA*kT*kT*dA*d[5mC]*dT*d[5mC]*dA*dA*dT*d[5mC]*dA*dT*kG*kG*kT) [Compound 958799]    Yap1 mRNA        % UTC               2
2  958469 (antisense kG*kG*k[5mC]*dT*d[5mC]*dT*dA*dT*dA*dA*d[5mC]*d[5mC]*dA*kT*kG*kT) [Compound 958469]    Yap1 mRNA        % UTC              17
3  958674 (kA*kA*kG*dA*dA*d[5mC]*dT*dT*dA*dG*dT*dT*d[5mC]*k[5mC]*k[5mC]*kT; antisense) [Compound 958674]    Yap1 mRNA        % UTC              25

**Q:** Param item = 958574 (k[5mC]*kT*kG*dG*d[5mC]*dA*dA*dA*dT*dT*dA*dT*dA*kG*kG*k[5mC]; antisense) [Compound 958574] ; retrieve measured YAP1 (% UTC).
**A:** 13

**Q:** Param item = 958719 (antisense kG*kT*kA*d[5mC]*dA*dT*dA*dA*dT*dG*dG*dG*d[5mC]*kT*kA*kA) [Compound 958719] ; retrieve measured YAP1 (% UTC).
**A:** 49

**Q:** Param item = 958814 (kG*kG*k[5mC]*dT*dA*dT*dG*d[5mC]*d[5mC]*dT*d[5mC]*dT*d[5mC]*kT*kT*kA; antisense) [Compound 958814] ; retrieve measured YAP1 (% UTC).
**A:** 214

**Q:** Param item = 958484 (antisense kG*k[5mC]*kA*dG*d[5mC]*dA*dA*dT*dG*dG*dA*d[5mC]*dA*kA*kG*kG) [Compound 958484] ; retrieve measured YAP1 (% UTC).
**A:** 2
